target: Histamine H1 receptor (Homo sapiens, UniProt P35367); type: functional, cell-based; further: assay procedure not described here
Sequence (P35367 whole entry): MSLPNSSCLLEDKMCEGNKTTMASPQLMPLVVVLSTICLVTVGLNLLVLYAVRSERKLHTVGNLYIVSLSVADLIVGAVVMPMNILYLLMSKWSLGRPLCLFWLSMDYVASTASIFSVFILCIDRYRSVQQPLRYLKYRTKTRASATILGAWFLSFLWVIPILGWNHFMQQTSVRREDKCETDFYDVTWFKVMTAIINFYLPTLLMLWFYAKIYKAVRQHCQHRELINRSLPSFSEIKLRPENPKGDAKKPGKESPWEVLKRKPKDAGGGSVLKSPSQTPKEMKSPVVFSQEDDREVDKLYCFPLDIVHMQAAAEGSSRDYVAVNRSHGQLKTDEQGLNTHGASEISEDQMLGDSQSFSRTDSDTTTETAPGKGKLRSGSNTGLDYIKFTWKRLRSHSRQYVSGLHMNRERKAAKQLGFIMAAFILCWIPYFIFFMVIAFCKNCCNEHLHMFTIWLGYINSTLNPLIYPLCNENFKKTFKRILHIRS
Measured AC50 of individual entries

Provide Histamine H1 receptor (Homo sapiens, UniProt P35367) AC50 reading for O=C1Nc2ccc(Cl)cc2C(c2ccccc2)=NC1O (stereo not drawn) [OXAZEPAM] .
> 30 µM

Provide Histamine H1 receptor (Homo sapiens, UniProt P35367) AC50 reading for CN1CCN(c2c(F)cc3c(=O)c(C(=O)O)cn4c3c2SCC4)CC1 [RUFLOXACIN] .
> 30 µM

Provide Histamine H1 receptor (Homo sapiens, UniProt P35367) AC50 reading for Cc1ccc(NC(=O)C2(c3ccc4c(c3)OC(F)(F)O4)CC2)nc1-c1cccc(C(=O)O)c1 [LUMACAFTOR] .
> 30 µM

###

Target or system Growth hormone secretagogue receptor type 1 (Homo sapiens, UniProt Q92847): recorded AC50 listed per item. Further: assay procedure not described here.

Examples with answers:
[[record]]
molecule = "CCOc1cc(CC(=O)N[C@@H](CC(C)C)c2ccccc2N2CCCCC2)ccc1C(=O)O [REPAGLINIDE]"
endpoint_name = "AC50"
reported_result = "> 30 µM"

[[record]]
molecule = "CCc1oc2ccccc2c1C(=O)c1cc(Br)c(O)c(Br)c1"
endpoint_name = "AC50"
reported_result = "> 30 µM"

[[record]]
molecule = "C#Cc1cccc(Nc2ncnc3cc(OCCOC)c(OCCOC)cc23)c1"
endpoint_name = "AC50"
reported_result = "> 30 µM"

[[record]]
molecule = "CCN(CC)CC(=O)Oc1ccc(NC(C)=O)cc1"
endpoint_name = "AC50"
reported_result = "> 30 µM"


Note: attention shifts to another entry.
Provide Growth hormone secretagogue receptor type 1 (Homo sapiens, UniProt Q92847) AC50 reading for CC1(C)C(C=C(Cl)Cl)C1C(=O)OCc1cccc(Oc2ccccc2)c1 (stereo not given) .
> 10 µM

###

Measured AC50 of individual entries
target: UniProt Q12809; assay type: functional; conditions: read-out: AC50; further: assay procedure not described here
Sequence (Q12809 whole entry): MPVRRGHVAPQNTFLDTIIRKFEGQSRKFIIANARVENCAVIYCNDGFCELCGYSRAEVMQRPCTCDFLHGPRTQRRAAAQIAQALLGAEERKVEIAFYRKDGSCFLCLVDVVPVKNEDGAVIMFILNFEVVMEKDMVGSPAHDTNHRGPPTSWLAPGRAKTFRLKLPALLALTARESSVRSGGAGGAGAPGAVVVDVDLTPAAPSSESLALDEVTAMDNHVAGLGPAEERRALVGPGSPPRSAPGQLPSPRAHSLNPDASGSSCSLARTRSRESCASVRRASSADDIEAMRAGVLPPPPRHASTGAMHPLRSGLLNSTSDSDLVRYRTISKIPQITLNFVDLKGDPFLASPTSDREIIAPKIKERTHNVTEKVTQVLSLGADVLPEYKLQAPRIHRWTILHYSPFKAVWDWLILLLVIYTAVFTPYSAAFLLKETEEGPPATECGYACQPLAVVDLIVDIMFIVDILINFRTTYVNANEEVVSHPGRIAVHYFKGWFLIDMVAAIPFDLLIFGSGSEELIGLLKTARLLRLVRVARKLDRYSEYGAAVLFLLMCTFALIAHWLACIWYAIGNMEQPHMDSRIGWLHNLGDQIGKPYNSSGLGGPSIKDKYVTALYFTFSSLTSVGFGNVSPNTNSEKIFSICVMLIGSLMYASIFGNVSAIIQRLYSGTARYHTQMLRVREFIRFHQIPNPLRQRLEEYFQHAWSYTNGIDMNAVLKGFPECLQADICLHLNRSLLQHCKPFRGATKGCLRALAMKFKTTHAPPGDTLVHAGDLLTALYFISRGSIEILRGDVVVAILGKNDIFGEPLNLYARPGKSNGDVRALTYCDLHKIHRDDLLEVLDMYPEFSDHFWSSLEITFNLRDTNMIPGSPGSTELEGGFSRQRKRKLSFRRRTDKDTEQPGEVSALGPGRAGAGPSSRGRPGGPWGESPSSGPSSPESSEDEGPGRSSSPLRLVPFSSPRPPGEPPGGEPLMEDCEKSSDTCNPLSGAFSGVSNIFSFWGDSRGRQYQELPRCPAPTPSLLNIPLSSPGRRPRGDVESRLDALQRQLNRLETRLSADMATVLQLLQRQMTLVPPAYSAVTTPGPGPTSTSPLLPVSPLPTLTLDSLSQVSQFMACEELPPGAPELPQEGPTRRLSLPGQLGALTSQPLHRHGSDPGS
Give your result in µM as a bare value.

[[record]]
smiles_representation = "COC(=O)C1=C(C)NC(C)=C(C(=O)O[C@H]2CCN(Cc3ccccc3)C2)[C@H]1c1cccc([N+](=O)[O-])c1"
reported_result = 1.8


Note: attention shifts to another entry.
Could you please provide reported AC50 for CCCOC(C(=O)OC1CCN(C)CC1)(c1ccccc1)c1ccccc1 ? Thanks!
3.2

###

Target or system Alpha-2B adrenergic receptor (Homo sapiens): recorded AC50 listed per item. Further: assay procedure not described here.

[[record]]
compound = "CN(c1nccc(=O)[nH]1)C1CCN(c2nc3ccccc3n2Cc2ccc(F)cc2)CC1"
reported_result = "> 30 µM"

[[record]]
compound = "CC(=O)Nc1c(I)c(C(=O)N[C@H]2C(O)O[C@H](CO)[C@@H](O)[C@@H]2O)c(I)c(N(C)C(C)=O)c1I (some centres undefined) [METRIZAMIDE]"
reported_result = "> 10 µM"


Could you please provide reported AC50 for N[C@H](Cc1cc(I)c(Oc2cc(I)c(O)c(I)c2)c(I)c1)C(=O)O ? Thanks!
> 10 µM

Could you please provide reported AC50 for [H]/N=C(\N/C(=N/[H])NCCCCCCNC(=N)NC(=N)Nc1ccc(Cl)cc1)Nc1ccc(Cl)cc1 ? Thanks!
2.4 µM

Could you please provide reported AC50 for CCCC[C@H](C)C[C@H](O)/C=C/[C@H]1[C@H](O)CC(=O)[C@@H]1CCCC/C=C/C(=O)O ? Thanks!
> 30 µM

Could you please provide reported AC50 for Cc1cc2nc3c(=O)[nH]c(=O)nc-3n(C[C@H](O)[C@H](O)[C@H](O)COP(=O)(O)O)c2cc1C [RIBOFLAVIN 5'-PHOSPHATE] ? Thanks!
> 30 µM

Could you please provide reported AC50 for O=C(Nc1c(Cl)cncc1Cl)c1ccc(OC(F)F)c(OCC2CC2)c1 ? Thanks!
> 30 µM

Could you please provide reported AC50 for Cc1ccc(=O)n(-c2ccccc2)c1 ? Thanks!
> 30 µM

###

molecular target: Corticotropin-releasing factor receptor 2 (Homo sapiens, UniProt Q13324); further: assay procedure not described here
Sequence (Q13324 whole entry): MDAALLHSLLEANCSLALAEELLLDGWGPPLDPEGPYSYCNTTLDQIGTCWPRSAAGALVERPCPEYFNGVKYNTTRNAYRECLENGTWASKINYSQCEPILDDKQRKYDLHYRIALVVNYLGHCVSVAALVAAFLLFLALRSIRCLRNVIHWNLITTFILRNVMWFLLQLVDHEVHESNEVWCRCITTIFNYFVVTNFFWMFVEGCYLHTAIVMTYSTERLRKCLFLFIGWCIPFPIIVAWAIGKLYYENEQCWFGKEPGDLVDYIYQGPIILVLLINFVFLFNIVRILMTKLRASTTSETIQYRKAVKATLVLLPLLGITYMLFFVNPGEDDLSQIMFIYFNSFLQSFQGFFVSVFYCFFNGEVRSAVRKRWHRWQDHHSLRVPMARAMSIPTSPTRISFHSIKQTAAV
Measured AC50 of individual entries

[[record]]
molecule = "COC1=C(OC)C(=O)C(CCCCCCCCCCO)=C(C)C1=O"
reported_result = "> 30 µM"


Provide Corticotropin-releasing factor receptor 2 (Homo sapiens, UniProt Q13324) AC50 reading for N[C@H](Cc1cc(I)c(Oc2cc(I)c(O)c(I)c2)c(I)c1)C(=O)O .
> 30 µM

Provide Corticotropin-releasing factor receptor 2 (Homo sapiens, UniProt Q13324) AC50 reading for CC(C)CC(N(C)C)C1(c2ccc(Cl)cc2)CCC1 (stereo not given) .
> 30 µM

Provide Corticotropin-releasing factor receptor 2 (Homo sapiens, UniProt Q13324) AC50 reading for Cn1c(=O)c2[nH]cnc2n(C)c1=O .
> 30 µM

Provide Corticotropin-releasing factor receptor 2 (Homo sapiens, UniProt Q13324) AC50 reading for Clc1cccc(Cl)c1N=C1NCCN1 .
> 30 µM

###

Measured AC50 of individual entries
target: UniProt:P06401; type: functional
Sequence (P06401 whole entry): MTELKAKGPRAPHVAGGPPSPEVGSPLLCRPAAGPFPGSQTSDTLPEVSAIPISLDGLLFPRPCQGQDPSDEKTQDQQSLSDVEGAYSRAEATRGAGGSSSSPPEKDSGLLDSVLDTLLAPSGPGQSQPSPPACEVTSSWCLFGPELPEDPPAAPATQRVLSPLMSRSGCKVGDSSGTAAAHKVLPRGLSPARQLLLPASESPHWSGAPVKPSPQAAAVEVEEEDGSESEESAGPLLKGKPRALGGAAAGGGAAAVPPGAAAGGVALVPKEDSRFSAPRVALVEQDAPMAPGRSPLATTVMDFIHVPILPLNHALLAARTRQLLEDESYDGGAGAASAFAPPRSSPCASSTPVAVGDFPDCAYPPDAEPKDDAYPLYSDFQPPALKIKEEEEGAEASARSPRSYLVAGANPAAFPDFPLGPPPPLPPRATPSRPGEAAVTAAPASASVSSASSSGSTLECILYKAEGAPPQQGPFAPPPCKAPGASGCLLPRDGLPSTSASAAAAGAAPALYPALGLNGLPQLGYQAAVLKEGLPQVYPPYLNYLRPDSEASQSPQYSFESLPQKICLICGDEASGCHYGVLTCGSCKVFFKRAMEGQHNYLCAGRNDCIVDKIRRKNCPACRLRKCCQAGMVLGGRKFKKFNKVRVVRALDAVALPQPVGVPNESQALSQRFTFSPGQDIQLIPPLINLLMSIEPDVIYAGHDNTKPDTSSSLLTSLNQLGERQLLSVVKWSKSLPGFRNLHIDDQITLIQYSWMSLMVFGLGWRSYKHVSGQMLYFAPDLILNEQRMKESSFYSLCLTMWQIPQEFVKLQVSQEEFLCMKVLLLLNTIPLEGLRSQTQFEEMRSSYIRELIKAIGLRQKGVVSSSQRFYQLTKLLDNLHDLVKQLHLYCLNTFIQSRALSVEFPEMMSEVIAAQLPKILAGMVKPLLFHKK

Examples with answers:
[[record]]
compound = "CC[C@H]1OC(=O)[C@H](C)[C@@H](O[C@H]2C[C@@](C)(OC)[C@@H](O)[C@H](C)O2)[C@H](C)[C@@H](O[C@@H]2O[C@H](C)C[C@H](N(C)C)[C@H]2O)[C@](C)(OC)C[C@@H](C)C(=O)[C@H](C)[C@@H](O)[C@]1(C)O [CLARITHROMYCIN]"
reported_result = "> 30 µM"

[[record]]
compound = "CN(C)c1cc(CNCC(C)(C)C)c(O)c2c1C[C@H]1C[C@H]3[C@H](N(C)C)C(O)=C(C(N)=O)C(=O)[C@@]3(O)C(O)=C1C2=O [OMADACYCLINE]"
reported_result = "> 30 µM"

[[record]]
compound = "COCCOC(=O)C1=C(C)NC(C)=C(C(=O)OC/C=C/c2ccccc2)C1c1cccc([N+](=O)[O-])c1 (stereo unspecified) [CILNIDIPINE]"
reported_result = "> 30 µM"

[[record]]
compound = "CC(=N)N1CC[C@H](SC2=C(C(=O)O)N3C(=O)[C@H]([C@@H](C)O)[C@H]3C2)C1"
reported_result = "> 300 µM"

[[record]]
compound = "C=C[C@@]1(C)CC(=O)[C@]2(O)[C@@]3(C)[C@@H](O)CCC(C)(C)[C@@H]3[C@H](OC(=O)CCN(C)C)[C@H](OC(C)=O)[C@@]2(C)O1"
reported_result = "> 30 µM"


Could you please provide reported AC50 for CC(=O)/N=c1/sc(S(N)(=O)=O)nn1C [METHAZOLAMIDE] ? Thanks!
> 10 µM

###

target: Mu-type opioid receptor (Homo sapiens); further: assay procedure not described here
Sequence (P35372 whole entry): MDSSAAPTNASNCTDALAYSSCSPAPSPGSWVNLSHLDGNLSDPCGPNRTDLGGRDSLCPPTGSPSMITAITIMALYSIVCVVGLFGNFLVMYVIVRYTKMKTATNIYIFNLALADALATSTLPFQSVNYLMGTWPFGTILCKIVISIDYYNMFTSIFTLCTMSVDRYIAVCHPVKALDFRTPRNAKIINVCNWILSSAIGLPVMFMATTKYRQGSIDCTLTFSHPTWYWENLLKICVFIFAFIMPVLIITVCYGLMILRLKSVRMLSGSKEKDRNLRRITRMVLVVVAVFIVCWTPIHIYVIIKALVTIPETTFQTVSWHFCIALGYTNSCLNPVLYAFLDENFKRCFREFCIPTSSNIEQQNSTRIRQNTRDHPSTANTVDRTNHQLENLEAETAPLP
Endpoint name: AC50

[[record]]
compound = "O=[N+]([O-])O[C@H]1CO[C@H]2[C@@H]1OC[C@H]2O[N+](=O)[O-] [ISOSORBIDE DINITRATE]"
endpoint_name = "AC50"
reported_result = "> 30 µM"

[[record]]
compound = "CNC(=O)C[C@@H](N)C(=O)N[C@@H](C(=O)N[C@@H]1C(=O)N2[C@@H]1SC(C)(C)[C@@H]2C(=O)O)c1ccc(O)cc1"
endpoint_name = "AC50"
reported_result = "> 30 µM"


Provide Mu-type opioid receptor (Homo sapiens) AC50 reading for NC(=O)c1nc(F)c[nH]c1=O .
> 30 µM

Provide Mu-type opioid receptor (Homo sapiens) AC50 reading for CCCCCCCC(=O)N[C@H](CN1CCCC1)[C@H](O)c1ccc2c(c1)OCCO2 .
14.1 µM

Provide Mu-type opioid receptor (Homo sapiens) AC50 reading for C[C@H](N)C(=O)O .
> 30 µM

###

Target: Cholecystokinin receptor type A (Homo sapiens); further: assay procedure not described here
Sequence (P32238 whole entry): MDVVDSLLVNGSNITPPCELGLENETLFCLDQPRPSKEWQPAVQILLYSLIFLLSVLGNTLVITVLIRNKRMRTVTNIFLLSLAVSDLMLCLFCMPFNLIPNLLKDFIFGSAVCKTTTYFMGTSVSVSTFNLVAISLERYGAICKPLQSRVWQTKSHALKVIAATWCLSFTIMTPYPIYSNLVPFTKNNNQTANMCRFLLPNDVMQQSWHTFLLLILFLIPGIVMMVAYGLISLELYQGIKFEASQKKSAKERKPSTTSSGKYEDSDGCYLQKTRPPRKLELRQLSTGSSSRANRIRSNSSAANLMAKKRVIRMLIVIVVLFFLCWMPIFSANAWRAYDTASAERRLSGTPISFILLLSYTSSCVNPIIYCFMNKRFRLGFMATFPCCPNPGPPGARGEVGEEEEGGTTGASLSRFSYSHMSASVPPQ
Endpoint name: AC50

[[record]]
compound = "CC(/C=C1\\SC(=S)N(CC(=O)O)C1=O)=C\\c1ccccc1"
reported_result = "> 30 µM"


Could you please provide reported AC50 for CNCCCC1c2ccccc2C=Cc2ccccc21 ? Thanks!
> 10 µM

###

Measured AC50 of individual entries
target: Histamine H2 receptor (Homo sapiens, UniProt P25021); type: functional, cell-based; further: assay procedure not described here
Sequence (P25021 whole entry): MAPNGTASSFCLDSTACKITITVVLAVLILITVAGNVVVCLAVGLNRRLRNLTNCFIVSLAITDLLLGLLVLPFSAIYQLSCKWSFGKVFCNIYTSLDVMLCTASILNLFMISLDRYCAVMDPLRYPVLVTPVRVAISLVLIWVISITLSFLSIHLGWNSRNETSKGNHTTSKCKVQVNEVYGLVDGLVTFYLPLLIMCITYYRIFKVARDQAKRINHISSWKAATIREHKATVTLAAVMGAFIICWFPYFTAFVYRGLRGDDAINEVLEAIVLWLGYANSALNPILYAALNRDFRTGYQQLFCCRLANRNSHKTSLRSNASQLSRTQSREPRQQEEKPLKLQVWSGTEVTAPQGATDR

Examples with answers:
[[record]]
compound = "CCN(CC)CCOC(=O)c1ccc(N)cc1Cl"
reported_result = "> 30 µM"

[[record]]
compound = "CO[C@@]1(NC(=O)Cc2cccs2)C(=O)N2C(C(=O)O)=C(COC(N)=O)CS[C@@H]21"
reported_result = "> 30 µM"

[[record]]
compound = "COc1ccc(C(CN(C)C)C2(O)CCCCC2)cc1 (stereo not given)"
reported_result = "> 30 µM"

[[record]]
compound = "O=C(O)CSCC(=O)NC1CCSC1=O (stereo not given)"
reported_result = "> 30 µM"


Note: attention shifts to another entry.
Could you please provide reported AC50 for NC(=O)c1ncn([C@@H]2O[C@H](CO)[C@@H](O)[C@H]2O)n1 ? Thanks!
> 10 µM
